- Study target: P[8] VP8* (BM13851) (Rotavirus A)
- Sequence (P11193 64-223): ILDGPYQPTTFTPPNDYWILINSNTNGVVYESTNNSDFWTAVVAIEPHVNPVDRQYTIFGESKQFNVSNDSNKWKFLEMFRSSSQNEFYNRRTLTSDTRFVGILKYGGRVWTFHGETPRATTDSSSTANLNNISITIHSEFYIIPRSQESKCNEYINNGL
Property name: Kd (mM)
Hi! Could you send only the number? It should be in mM, unit omitted.

[
  {
    "Molecule": "CC(=O)NC1C(O)OC(CO)C(OC2OC(C)C(O)C(O)C2O)C1OC1OC(CO)C(O)C(O)C1OC1OC(C)C(O)C(O)C1O (centres unmarked) [Le^b tetra-saccharide, Fucα1-2Galβ1–3[Fucα1–4]GlcNAc]",
    "Study target": "P[8] VP8* (BM13851) (Rotavirus A)",
    "Unit of measure": "mM",
    "Kd": 20.3
  }
]

State the recorded Kd for this entry: CC(=O)NC1C(OC2C(O)C(CO)OC(OC3C(CO)OC(O)C(O)C3O)C2O)OC(CO)C(O)C1OC1OC(CO)C(O)C(O)C1OC1OC(C)C(O)C(O)C1O (centres unmarked) 23.5
